As shown below, each of these compounds has a reported ratio IC50 hV2/hV1a value.
target_or_test_system: human V1a receptor (Homo sapiens)
Construct: expressed in transfected cells; host or cells: CHO K1 (ATCC), also stably transfected with a modified aequorin
Sequence (P37288 whole entry): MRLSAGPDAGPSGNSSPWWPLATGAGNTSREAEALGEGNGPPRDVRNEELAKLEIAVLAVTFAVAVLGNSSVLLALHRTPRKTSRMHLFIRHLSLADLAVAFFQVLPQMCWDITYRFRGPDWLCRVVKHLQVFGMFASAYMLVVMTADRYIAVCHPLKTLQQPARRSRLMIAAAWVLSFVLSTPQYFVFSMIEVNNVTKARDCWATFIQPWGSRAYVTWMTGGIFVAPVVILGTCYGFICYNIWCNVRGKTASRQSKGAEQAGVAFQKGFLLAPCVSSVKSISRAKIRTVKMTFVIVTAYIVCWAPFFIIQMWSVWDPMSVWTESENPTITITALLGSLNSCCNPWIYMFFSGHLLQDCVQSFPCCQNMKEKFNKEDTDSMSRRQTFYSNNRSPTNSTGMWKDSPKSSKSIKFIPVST
assay_protocol: Cellular in vitro assay for determining vasopressin receptor activity (V1a, aequorin luminescence)
Format: cell-based
conditions: selectivity ratio IC50 hV2 / IC50 hV1a

Examples with their reported ratio IC50 hV2/hV1a follow.
{"columns": ["compound", "result_value"],
 "data": [
  ["C[C@H](O)c1nc(Cn2nc(-c3ccc(Cl)cc3)n(C[C@H](O)C(F)(F)F)c2=O)nn1-c1ccccn1 [Example 14]", 10.2],
  ["C[C@@H](O)c1nc(Cn2nc(-c3ccc(Cl)cc3)n(C[C@H](O)C(F)(F)F)c2=O)nn1-c1cnccc1Cl [Example 1]", 32.6],
  ["C[C@H](O)c1nc(Cn2nc(-c3ccc(Cl)cc3)n(C[C@H](O)C(F)(F)F)c2=O)nn1-c1cnccn1 [Example 19]", 10.8],
  ["C[C@H](O)c1nc(Cn2nc(-c3ccc(Cl)cc3)n(C[C@H](O)C(F)(F)F)c2=O)nn1-c1ncccc1Cl [Example 3]", 14.2],
  ["CC(O)c1nc(Cn2nc(-c3ccc(Cl)cc3)n(C[C@H](O)C(F)(F)F)c2=O)nn1-c1cncc(Cl)c1 (single isomer, unassigned) [Example 28]", 2.5],
  ["C[C@H](O)c1nc(Cn2nc(-c3ccc(Cl)cc3)n(C[C@H](O)C(F)(F)F)c2=O)nn1-c1cnccc1Cl [Example 2]", 10.7],
  ["C[C@@H](O)c1nc(Cn2nc(-c3ccc(Cl)cc3)n(C[C@H](O)C(F)(F)F)c2=O)nn1-c1ncccc1C(F)(F)F [Example 31]", 35.1],
  ["C[C@@H](O)c1nc(Cn2nc(-c3ccc(Cl)cc3)n(C[C@H](O)C(F)(F)F)c2=O)nn1-c1ncccc1F [Example 13]", 6.4]
]}

Query: # get_value(readout='ratio IC50 hV2/hV1a', item= C[C@H](O)c1nc(Cn2nc(-c3ccc(Cl)cc3)n(C[C@H](O)C(F)(F)F)c2=O)nn1-c1ncccc1C(F)(F)F [Example 30] )
Reply: 14.9

Query: # get_value(readout='ratio IC50 hV2/hV1a', item= CC(O)c1nc(Cn2nc(-c3ccc(Cl)cc3)n(C[C@H](O)C(F)(F)F)c2=O)nn1-c1cccnc1 (single isomer, unassigned) [Example 25] )
Reply: 2.6

Query: # get_value(readout='ratio IC50 hV2/hV1a', item= C[C@H](O)c1nc(Cn2nc(-c3ccc(Cl)cc3)n(C[C@H](O)C(F)(F)F)c2=O)nn1-c1ncccc1OC(F)(F)F [Example 12] )
Reply: 11.3

Query: # get_value(readout='ratio IC50 hV2/hV1a', item= C[C@H](O)c1nc(Cn2nc(-c3ccc(Cl)cc3)n(C[C@H](O)C(F)(F)F)c2=O)nn1-c1nccn1C [Example 22] )
Reply: 2.0

Query: # get_value(readout='ratio IC50 hV2/hV1a', item= C[C@H](O)c1nc(Cn2nc(-c3ccc(Cl)cc3)n(C[C@H](O)C(F)(F)F)c2=O)nn1-c1cccc(F)n1 [Example 17] )
Reply: 2.7

Query: # get_value(readout='ratio IC50 hV2/hV1a', item= COc1nccnc1-n1nc(Cn2nc(-c3ccc(Cl)cc3)n(C[C@H](O)C(F)(F)F)c2=O)nc1[C@H](C)O [Example 21] )
Reply: 0.9
